Listed below: normalized growth values for each entry.
Experiment: chemical genetic growth profiling, strain panel (AID 1159580);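 further: tested at 20 µM; growth read once vehicle control cultures reached saturation at 30 °C; 1 = growth at the plate median or of vehicle wells; lower values mean less growth of the strain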
Conditions: S. cerevisiae deletion strains, growth OD, locus YDR388W, hits give low values
Screen size: about 5,500 compounds; about 2,000 (36%) were called active. Another 18% or so got no clear call; they are omitted. The list shows a part of the results.
observable: normalized growth

INSERT INTO measurements (molecule, observable, recorded_number) VALUES
  ('COc1cc(OC)c2c(=O)c(O)c(-c3ccc(OC)c(OC)c3)oc2c1', 'normalized growth', 0.844),
  ('CCCCCCCCCCCCCCCCCC(=O)OC(CC(=O)O)C[N+](C)(C)C (configuration not stated)', 'normalized growth', 0.0585),
  ('C[C@]12CCC3c4ccc(O)cc4CCC3C1C[C@@H](O)[C@@H]2O (some centres not stated)', 'normalized growth', 0.982),
  ('CCc1cccc(CC)c1N(COC)C(=O)CCl', 'normalized growth', 1.02),
  ('CNC(C)C(O)c1ccccc1 (configuration not stated)', 'normalized growth', 1.02),
  ('CC(CC(O)C1OC1(C)C)[C@@H]1CCC2(C)C3=CCC4C(C)(C)C(=O)CCC4(C)C3CC[C@@]12C (some centres not stated)', 'normalized growth', 1.03),
  ('CC(=O)OC(C)C[N+](C)(C)C (configuration not stated)', 'normalized growth', 1.02),
  ('CC12CCC3c4ccc(OCc5ccccc5)cc4CCC3C1C[C@@H](O)[C@@H]2O (some centres not stated)', 'normalized growth', 0.066),
  ('O=C(Cc1cccs1)NC1C(=O)N2C(C(=O)[O-])=C(C[n+]3ccccc3)CSC12 (configuration not stated)', 'normalized growth', 0.99),
  ('CCCCCCCCCCCC1=C(O)C(=O)C=C(O)C1=O', 'normalized growth', 0.98),
  ('C[C@]12CCC3c4ccc(OS(=O)(=O)O)cc4CCC3C1CC[C@H]2O (some centres not stated)', 'normalized growth', 0.986),
  ('C[N+](C)(C)CC(O)CC(=O)O (configuration not stated)', 'normalized growth', 1.01),
  ('COc1ccc(-c2cc(=O)c3c(O)cc(O[C@H]4O[C@H](CO[C@@H]5O[C@@H](C)[C@H](O)[C@@H](O)[C@H]5O)[C@@H](O)[C@H](O)[C@H]4O)cc3o2)cc1', 'normalized growth', 1.02),
  ('C[C@@H]([C@H](O)c1ccccc1)N(C)C', 'normalized growth', 1.01),
  ('CC(=O)Oc1ccc2c(c1C(C)C)CCC1C(C)(C)CCC[C@]21C (some centres not stated)', 'normalized growth', 0.994),
  ('CCC(c1ccc(O)cc1)C(CC)c1ccc(O)cc1 (configuration not stated)', 'normalized growth', 0.966),
  ('COc1ccc2c(c1)CCC1C2CCC2(C)C1C[C@@H](O)C2O (some centres not stated)', 'normalized growth', 0.99),
  ('CC(=O)[C@@]1(O)CCC2C3C[C@H](C)C4=CC(=O)C=CC4(C)[C@@]3(F)[C@@H](O)C[C@@]21C (some centres not stated)', 'normalized growth', 1.01),
  ('COc1cc(O)c2c(=O)c(O)c(-c3ccc(O)c(O)c3)oc2c1', 'normalized growth', 1.01),
  ('O=c1c(O)c(-c2cc(O)c(O)c(O)c2)oc2cc(O)cc(O)c12', 'normalized growth', 1.02),
  ('NS(=O)(=O)c1cc(C2(O)NC(=O)c3ccccc32)ccc1Cl (configuration not stated)', 'normalized growth', 1.02),
  ('COC(=O)[C@@]1(C)CCC[C@]2(C)c3ccc(O)c(C(C)C)c3CCC12 (some centres not stated)', 'normalized growth', 0.942);
